subject of test: PBP3 of P. aeruginosa (PaPBP3) (Pseudomonas aeruginosa, UniProt G3XD46)
Construct: P. aeruginosa PBP3 (amino acids 40 to 563); His-tag; made in house; host or cells: E. coli BL21 (DE3) Rosetta, plasmid pET41_PBP-3
Sequence (G3XD46 40-563): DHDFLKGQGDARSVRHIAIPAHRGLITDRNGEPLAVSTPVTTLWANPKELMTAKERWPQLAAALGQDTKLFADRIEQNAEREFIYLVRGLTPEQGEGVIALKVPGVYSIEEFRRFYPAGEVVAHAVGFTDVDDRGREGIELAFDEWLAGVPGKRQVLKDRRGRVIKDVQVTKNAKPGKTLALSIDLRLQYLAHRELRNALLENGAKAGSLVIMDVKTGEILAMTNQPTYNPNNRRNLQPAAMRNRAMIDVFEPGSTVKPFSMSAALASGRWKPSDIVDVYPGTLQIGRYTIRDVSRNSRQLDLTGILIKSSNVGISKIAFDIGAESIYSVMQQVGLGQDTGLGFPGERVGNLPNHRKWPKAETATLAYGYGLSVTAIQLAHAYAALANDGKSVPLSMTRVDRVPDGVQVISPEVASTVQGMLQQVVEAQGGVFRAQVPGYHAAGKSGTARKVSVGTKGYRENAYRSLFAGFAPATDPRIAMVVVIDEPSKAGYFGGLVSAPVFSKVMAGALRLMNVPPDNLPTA
assay notes: FP-Bocillin FL competition assay
Type: binding
study conditions: 30 min preincubation before Bocillin FL, 37 °C; read-out: IC50 Determination with PaPBP3, FP-Bocillin FL Assay
pIC50: −log10 of the molar value.
For each record, write down the corresponding pIC50.

Q: Requested read-out: pIC50. Entry: O=C1NC(c2ccc(Cl)cc2)C(C(=O)c2ccc(Br)cc2)=C1O (stereo not drawn) [Compound 32]
Result: < 4.00

Q: # input compound: CCCCCCOc1cccc(N2C(=O)C(O)=C(C(=O)c3ccccc3)C2c2ccccc2F)c1 (stereo not drawn) [Compound 3] ; wanted: its pIC50
Result: < 4.00

Q: Dear colleague, I am looking for the recorded pIC50 of the following compound: CCOC(=O)c1ccc(N2C(=O)C(O)=C(S(=O)(=O)c3ccccc3)C2c2ccc(C(C)C)cc2)cc1 (stereo not drawn) [Compound 4]
Result: < 4.00

###

For each entry below, report its MIC value.
Test system: S. pneumoniae
assay notes: MIC broth microdilution, S. pneumoniae
Format: cell-based
study conditions: Streptococcus pneumoniae; Table S3; read-out: MIC (µM) S. pneumoniae

Q: Given the compound O=C(C1=C(N2CCOCC2)C(=O)N(Cc2cccc(F)c2)C1c1ccc(Cl)cc1)c1ccc(Br)cc1 (stereo not drawn) , what is its reported MIC?
Result: > 100 µM

Q: Could you share which MIC value was measured for CCNC1=C(C(=O)c2ccc(Br)cc2)C(c2ccc(Cl)cc2)N(Cc2cccc(F)c2)C1=O (stereo not drawn) ?
Result: > 100 µM

Q: Data request, read-out MIC, for O=C1NC(c2ccc(Cl)cc2)C(C(=O)c2ccc(Br)cc2)=C1O (stereo not drawn)
Result: > 100 µM

###

subject of test: PBP3 of P. aeruginosa (PaPBP3) (Pseudomonas aeruginosa, UniProt G3XD46)
Construct: P. aeruginosa PBP3 (amino acids 40 to 563); His-tag; made in house; host or cells: E. coli BL21 (DE3) Rosetta, plasmid pET41_PBP-3
assay notes: S2dfluo fluorescence transpeptidase assay
Format: biochemical
study conditions: 300 nM PaPBP3, 30 min preincubation, 37 °C; read-out: IC50 Determination with PaPBP3, S2dfluo Assay
result type: IC50 (µM)
Give the quantity in µM, number only.

Q: Which IC50 is reported for this molecule? O=C(C1=C(O)C(=O)N(Cc2nc3ccccc3[nH]2)C1c1ccc(Cl)cc1)c1ccc(Br)cc1 (centres unmarked)
Result: 100

Q: Item CCCCCCOc1cccc(N2C(=O)C(O)=C(C(=O)c3ccccc3)C2c2ccccc2F)c1 (centres unmarked) has what recorded IC50?
Result: 19

###

Could you please report measured pIC50 for the items listed next?
subject of test: PBP3 of P. aeruginosa (PaPBP3) (Pseudomonas aeruginosa)
Construct: P. aeruginosa PBP3 (amino acids 40 to 563); His-tag; made in house; host or cells: E. coli BL21 (DE3) Rosetta, plasmid pET41_PBP-3
assay notes: S2dfluo fluorescence transpeptidase assay
Assay type: biochemical
study conditions: 300 nM PaPBP3, 30 min preincubation, 37 °C; read-out: IC50 Determination with PaPBP3, S2dfluo Assay
pIC50: −log10 of the molar value.

Q: Hi! What's the reported pIC50 for O=C1NC(c2ccc(Cl)cc2)C(C(=O)c2ccc(Br)cc2)=C1O (stereo not drawn) [Compound 32] on PBP3 of P. aeruginosa (PaPBP3) (Pseudomonas aeruginosa)?
Result: < 4.00

Q: I'm curious: which pIC50 was measured for O=C(C1=C(O)C(=O)N(Cc2cc3cnccc3[nH]2)C1c1ccc(Cl)cc1)c1ccc(Br)cc1 (stereo not drawn) [Compound 36] tested on PBP3 of P. aeruginosa (PaPBP3) (Pseudomonas aeruginosa)?
Result: < 4.00

Q: For PBP3 of P. aeruginosa (PaPBP3) (Pseudomonas aeruginosa), provide pIC50 of O=C(C1=C(N2CCOCC2)C(=O)N(Cc2cccc(F)c2)C1c1ccc(Cl)cc1)c1ccc(Br)cc1 (stereo not drawn) [Compound 44] please.
Result: < 4.00
